Reference source for all entries: the RNAGym collection of RNA variant scans (doi:10.1021/acssynbio.7b00057)

B1: Pistol ribozyme (parent)
chain: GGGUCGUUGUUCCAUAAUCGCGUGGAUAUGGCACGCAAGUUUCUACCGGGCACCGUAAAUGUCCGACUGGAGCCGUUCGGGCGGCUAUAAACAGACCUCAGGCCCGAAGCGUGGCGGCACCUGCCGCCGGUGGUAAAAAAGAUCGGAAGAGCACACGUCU

variants of: B1; test: aptazyme ON/OFF ratio, guanine; higher = stronger switching; co-transcriptional cleavage with and without guanine
parameter.measured: aptazyme ON/OFF ratio

> print(dat)
                       variant.code  recorded.result
 1       U7A U8C G9U U11G C12U C13A             1.22
 2           U7A G9A U11C C12A C13U             1.16
 3               U8G U10A U11A C12G             1.14
 4      U7G U8G U10A U11G C12A C13A             1.05
 5           U7A G9A U10C U11C C13A            0.975
 6                U7C U8C U11G C13A             1.24
 7            U7C U8G G9A U11C C13G             1.02
 8            U7A U8A G9U U10C C13U              1.2
 9                    G9C U11A C12A             1.34
10      U7A U8A U10A U11C C12G C13A             1.06
11       U7A U8A G9U U10C C12G C13U              1.4
12  U7C U8A G9C U10G U11C C12U C13A             1.19
13      U8A G9A U10C U11A C12G C13A             1.19
14       U7G U8G G9U U11C C12U C13U             1.33
15               U7A U10C U11G C12G             1.26
16      U8G G9C U10G U11C C12A C13G             1.04
17           U7C U8G U10G U11G C13G             1.28
18               U7C U11G C12G C13U             1.15
19                    U7G U10C C12G             1.26
20      U7G G9A U10C U11C C12U C13U             1.07
21       U7C U8G G9A U11C C12G C13A             1.05
22           U7C G9A U11A C12G C13A             1.15
